Test system: Listeria monocytogenes NBIMCC 8632
ASSAY REMARKS: Antimicrobial activity, agar well diffusion
Assay type: cell-based
CONDITION NOTES: Dose 0.6 mg/disk, dwell = 6 mm
MEASUREMENT KIND: Inhibition Zones (mm)
Give the number; mm is assumed, so skip it.

Worked set:
{"MOLECULE": "O=C(NCCc1cccc(Cl)c1)c1ccccc1NC(=O)C(Cl)c1ccccc1 (centres unmarked) [Compound 4e]", "Inhibition Zones, mm": 9}
{"MOLECULE": "O=C(Nc1ccccc1C(=O)NCCc1cccc(Cl)c1)c1ccccc1 [Compound 4b]", "Inhibition Zones, mm": 12}
{"MOLECULE": "Nc1ccccc1C(=O)NCCc1cccc(Cl)c1 [Compound 3, 2-amino-N-(3-chlorophenethyl)benzamide]", "Inhibition Zones, mm": 12}
{"MOLECULE": "O=C(Nc1ccccc1C(=O)NCCc1cccc(Cl)c1)c1ccccc1Cl [Compound 4d]", "Inhibition Zones, mm": 11}

Now for a further molecule.
Task: Look at this molecule and give its reported Inhibition Zones. CC(=O)Nc1ccccc1C(=O)NCCc1cccc(Cl)c1 [Compound 4a]
Output: 8
